# TARGET_OR_TEST_SYSTEM: Poly [ADP-ribose] polymerase 1 (Homo sapiens)
# Sequence (P09874 whole entry): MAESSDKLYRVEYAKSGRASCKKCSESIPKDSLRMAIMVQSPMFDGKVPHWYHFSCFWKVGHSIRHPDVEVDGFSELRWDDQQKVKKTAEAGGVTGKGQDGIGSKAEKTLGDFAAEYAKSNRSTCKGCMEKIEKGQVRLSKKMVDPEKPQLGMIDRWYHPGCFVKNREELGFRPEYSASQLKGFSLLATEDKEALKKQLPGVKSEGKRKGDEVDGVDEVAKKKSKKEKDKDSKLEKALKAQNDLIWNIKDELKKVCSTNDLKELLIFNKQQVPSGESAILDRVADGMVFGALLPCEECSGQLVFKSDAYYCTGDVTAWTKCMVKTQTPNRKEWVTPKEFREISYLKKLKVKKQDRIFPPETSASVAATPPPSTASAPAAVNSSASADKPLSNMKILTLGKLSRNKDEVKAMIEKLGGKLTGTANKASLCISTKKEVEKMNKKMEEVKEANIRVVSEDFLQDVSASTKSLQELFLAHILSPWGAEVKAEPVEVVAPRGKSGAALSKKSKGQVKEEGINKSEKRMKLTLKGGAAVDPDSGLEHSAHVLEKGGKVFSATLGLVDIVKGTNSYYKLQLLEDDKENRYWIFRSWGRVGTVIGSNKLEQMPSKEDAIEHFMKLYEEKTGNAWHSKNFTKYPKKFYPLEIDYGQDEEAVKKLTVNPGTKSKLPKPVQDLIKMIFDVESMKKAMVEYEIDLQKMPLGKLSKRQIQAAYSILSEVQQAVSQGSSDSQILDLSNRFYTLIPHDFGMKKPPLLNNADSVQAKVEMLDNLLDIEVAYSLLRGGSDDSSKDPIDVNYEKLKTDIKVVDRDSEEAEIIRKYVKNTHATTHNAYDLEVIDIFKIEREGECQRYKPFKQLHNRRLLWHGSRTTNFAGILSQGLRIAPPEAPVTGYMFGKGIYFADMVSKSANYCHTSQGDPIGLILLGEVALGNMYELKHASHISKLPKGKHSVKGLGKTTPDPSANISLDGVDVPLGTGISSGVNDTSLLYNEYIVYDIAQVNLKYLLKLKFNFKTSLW
# EXPERIMENT_DESCRIPTION: Binding affinity to PARP1 in human OVCAR8 cells assessed as reduction in [125I]-KX1 binding by gamma counting analysis
pIC50: −log10 of the molar value.
OBSERVATION_TYPE: pIC50

>>> recorded_result("O=C(C1CC1)N1CC2(CCN2C(=O)c2cc(Cc3n[nH]c(=O)c4ccccc34)ccc2F)C1")
6.89
>>> recorded_result("O=C(c1cc(Cc2n[nH]c(=O)c3ccccc23)ccc1F)N1CCC2(CNC2)C1")
5.91
>>> recorded_result("O=C(c1cc(Cc2n[nH]c(=O)c3ccccc23)ccc1F)N1CCC2(CCCCC2)C1")
6.85
>>> recorded_result("O=C(c1cc(Cc2n[nH]c(=O)c3ccccc23)ccc1F)N1CCC2(CCN(C(=O)C3CC3)CC2)C1")
6.65
>>> recorded_result("O=C(c1cc(Cc2n[nH]c(=O)c3ccccc23)ccc1F)N1CCC2(CCC2)C1")
7.49
>>> recorded_result("O=C(c1cc(Cc2n[nH]c(=O)c3ccccc23)ccc1F)N1CC2(CNC2)C1")
5.62
>>> recorded_result("O=C(c1cc(Cc2n[nH]c(=O)c3ccccc23)ccc1F)N1CCC12CCC2")
7.44
>>> recorded_result("O=C(c1cc(Cc2n[nH]c(=O)c3ccccc23)ccc1F)N1CCC2(C1)CN(C(=O)C1CC1)C2")
5.60
>>> recorded_result("O=C(c1cc(Cc2n[nH]c(=O)c3ccccc23)ccc1F)N1CCC2(CCNCC2)CC1")
6.63
>>> recorded_result("O=C(c1cc(Cc2n[nH]c(=O)c3ccccc23)ccc1F)N1CC2(CCCCC2)C1")
7.18
>>> recorded_result("CC(C)(C)OC(=O)N1CCC2(CC1)CCN2C(=O)c1cc(Cc2n[nH]c(=O)c3ccccc23)ccc1F")
5.53
>>> recorded_result("O=C(c1cc(Cc2n[nH]c(=O)c3ccccc23)ccc1F)N1CC2(CCNCC2)C1")
5.85
>>> recorded_result("CC(C)(C)OC(=O)N1CCC2(CC1)CCN(C(=O)c1cc(Cc3n[nH]c(=O)c4ccccc34)ccc1F)C2")
5.96
>>> recorded_result("O=C(c1cc(Cc2n[nH]c(=O)c3ccccc23)ccc1F)N1CCC2(CCNCC2)C1")
5.41
>>> recorded_result("CC(C)(C)OC(=O)N1CC2(CCN2C(=O)c2cc(Cc3n[nH]c(=O)c4ccccc34)ccc2F)C1")
6.06
>>> recorded_result("O=C(C1CC1)N1CCC2(CC1)CCN2C(=O)c1cc(Cc2n[nH]c(=O)c3ccccc23)ccc1F")
6.37
>>> recorded_result("O=C(c1cc(Cc2n[nH]c(=O)c3ccccc23)ccc1F)N1CC2(CCN(C(=O)C3CC3)CC2)C1")
7.00
>>> recorded_result("O=C(c1cc(Cc2n[nH]c(=O)c3ccccc23)ccc1F)N1CCC2(CCCCC2)CC1")
7.24
>>> recorded_result("O=C(c1cc(Cc2n[nH]c(=O)c3ccccc23)ccc1F)N1CCC2(CCNC2)C1 (centres undefined)")
5.95

----------
# EXPERIMENT_DESCRIPTION: Cytotoxicity against human BRCA1-restored UWB1.289 cells assessed as reduction in cell viability after 4 to 7 days by cell-titer glo assay
# Format: cell-based
pEC50: −log10 of the molar value.
OBSERVATION_TYPE: pEC50

>>> recorded_result("CC(C)(C)OC(=O)N1CCC2(CCN(C(=O)c3cc(Cc4n[nH]c(=O)c5ccccc45)ccc3F)C2)C1 (centres undefined)")
5.13
>>> recorded_result("CC(C)(C)OC(=O)N1CCC2(CC1)CCN(C(=O)c1cc(Cc3n[nH]c(=O)c4ccccc34)ccc1F)C2")
5.21
>>> recorded_result("CC(C)(C)OC(=O)N1CCC2(CC1)CCN(C(=O)c1cc(Cc3n[nH]c(=O)c4ccccc34)ccc1F)CC2")
5.40
>>> recorded_result("O=C(c1cc(Cc2n[nH]c(=O)c3ccccc23)ccc1F)N1CC2(C1)CN(C(=O)C1CC1)C2")
4.92
